Molecular target: KRAS G12D (Homo sapiens (Human), UniProt P01116, G12D)
Sequence (P01116-2 other isoform, or with tags, fused parts or gaps G12D): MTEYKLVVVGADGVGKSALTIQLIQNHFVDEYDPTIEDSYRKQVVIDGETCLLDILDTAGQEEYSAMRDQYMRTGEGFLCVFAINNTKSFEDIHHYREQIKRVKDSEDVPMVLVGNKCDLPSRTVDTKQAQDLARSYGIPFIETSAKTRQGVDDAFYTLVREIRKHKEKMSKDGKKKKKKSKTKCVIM
Assay: KRAS G12D LoEnz Biochemical Assay, BODIPY-GDP Exchange TR-FRET (SOS1-mediated nucleotide exchange)
Settings: read-out: KRas (G12D) GDP HTRF IC50
I'd be grateful if you could share measured log10 of IC50 for these entries.
Log10 applied to IC50; unit prior to transform: nM.

# returns recorded log10 of IC50 (system: KRAS G12D (Homo sapiens (Human), UniProt P01116, G12D)) for Cc1c(F)c(N)cc(-c2nc3c4c(nc(OC[C@]56CCCN5C[C@H](F)[C@@H]6F)nc4c2F)N2C[C@H]4CC[C@H](N4)[C@H]2[C@H](C)O3)c1C(F)(F)F (single isomer, unassigned) [143 (isomer 1)]
-0.66

# returns recorded log10 of IC50 (system: KRAS G12D (Homo sapiens (Human), UniProt P01116, G12D)) for Cc1c(F)c(N)cc(-c2nc3c4c(nc(OC[C@H]5CC[C@@H]6CN(C)C(=O)CN56)nc4c2F)N2C[C@H]4CC[C@H](N4)[C@H]2[C@H](C)O3)c1C(F)(F)F (single isomer, unassigned) [131 (isomer 3)]
0.32

# returns recorded log10 of IC50 (system: KRAS G12D (Homo sapiens (Human), UniProt P01116, G12D)) for Cc1c(F)c(N)cc(-c2nc3c4c(nc(OC[C@@]56CCCN5C[C@H](F)C6)nc4c2F)N2C[C@H]4CC[C@H](N4)[C@H]2CO3)c1C(F)(F)F [Compound 61]
-0.68

# returns recorded log10 of IC50 (system: KRAS G12D (Homo sapiens (Human), UniProt P01116, G12D)) for C#Cc1cccc2cncc(-c3nc4c5c(nc(OC[C@@]67CCCN6C[C@H](F)C7)nc5c3F)N3C[C@H]5CC[C@H](N5)[C@H]3[C@H](C)O4)c12 [Compound 39]
0.25

# returns recorded log10 of IC50 (system: KRAS G12D (Homo sapiens (Human), UniProt P01116, G12D)) for C[C@@H]1Oc2nc(-c3cc(N)c(F)c(F)c3C(F)(F)F)c(F)c3nc(OCC45CCN4CC(F)(F)C5)nc(c23)N2C[C@H]3CC[C@H](N3)[C@@H]12 (stereo partly shown) [Compound 155]
-0.66

# returns recorded log10 of IC50 (system: KRAS G12D (Homo sapiens (Human), UniProt P01116, G12D)) for Cc1c(F)c(N)cc(-c2nc3c4c(nc(OCC5CCC6CC(F)(F)CN56)nc4c2F)N2C[C@H]4CC[C@H](N4)[C@H]2[C@H](C)O3)c1C(F)(F)F (single isomer, unassigned) [153 (isomer 3)]
-0.26

# returns recorded log10 of IC50 (system: KRAS G12D (Homo sapiens (Human), UniProt P01116, G12D)) for Cc1c(F)c(N)cc(-c2nc3c4c(nc(OC[C@@]56CCCN5C[C@H](OCc5ccc(-c7ccccc7C#N)cc5)C6)nc4c2F)N2C[C@H]4CC[C@H](N4)[C@H]2[C@H](C)O3)c1C(F)(F)F [Compound 32]
-0.70

# returns recorded log10 of IC50 (system: KRAS G12D (Homo sapiens (Human), UniProt P01116, G12D)) for C=C1CN2CCC[C@@]2(COc2nc3c4c(nc(-c5cc(N)c(F)c(C)c5C(F)(F)F)c(F)c4n2)O[C@@H](C)[C@@H]2[C@@H]4CC[C@H](CN32)N4)C1 [Compound 57]
-0.80

# returns recorded log10 of IC50 (system: KRAS G12D (Homo sapiens (Human), UniProt P01116, G12D)) for Fc1c(-c2cccc3cccc(Cl)c23)nc2c3c(ncnc13)N1C[C@H]3CC[C@H](N3)[C@H]1CO2 [Compound 53]
4.35

# returns recorded log10 of IC50 (system: KRAS G12D (Homo sapiens (Human), UniProt P01116, G12D)) for Cc1c(F)c(N)cc(-c2nc3c4c(nc(OC[C@H]5CC[C@@H]6C(=O)N(C)CCN56)nc4c2F)N2C[C@H]4CC[C@H](N4)[C@H]2[C@H](C)O3)c1C(F)(F)F (relative stereo) [Compound 123]
-0.15

These measurements were taken from patent US20240025919A1.
